System: c-Myc produced in MM.1S cells
Assay: c-Myc down regulation assay (MSD)
Assay type: cell-based
Conditions: Homo sapiens, MM1.S, 24 hrs
Description: c-Myc Down Regulation and MM.1S Viability Assays: An enzyme linked immunosorbent assay using the Meso Scale Diagnostic (MSD) technology was used to detect levels of c-Myc produced in MM.1S cells (ATCC). […] EC50 values were calculated from the fit of the dose-response curves to a four-parameter equation. […]
pEC50: −log10 of the molar value.
property measured: pEC50

// below: answered compounds
Cc1noc(C)c1-c1cc(C(O)(c2ccccn2)c2ccccn2)c2nc(C3CC3)[nH]c2c1	7.29
Cc1noc(C)c1-c1cc(C(O)(c2cccnn2)C2CCC(C)(C)O2)c2nc(C3CC3)[nH]c2c1 (single isomer, unassigned)	7.82
Cc1noc(C)c1-c1cc(C(O)(c2ccccc2)c2cccnc2)c2nc(C3CC3)[nH]c2c1 (stereo not drawn)	7.25
Cc1noc(C)c1-c1cc(C(O)(c2ccccn2)c2ncccn2)c2nc(C3CC3)[nH]c2c1 (single isomer, unassigned)	7.48
Cc1cccc(C(O)(c2cc(-c3c(C)noc3C)cc3[nH]c(C4CC4)nc23)C2CCCO2)n1 (racemic)	8.32

(A) Cc1noc(C)c1-c1cc(C(O)(c2nccs2)c2nccs2)c2nc(C3CC3)[nH]c2c1
(B) Cc1noc(C)c1-c1cc(C(O)(c2ccccn2)c2ccccn2)c2nc(C3CC3)[nH]c2c1F
Q: Hi there, can you help? I need to know whether A or B has lower measured pEC50. Give the label under which the chosen entry appears.
Ans: B

Source of measurements: patent US10017501B2
